Conditions: buffer; pH 7.4; 6.0 h; 150.0 µM
Observable: solubility kinetic

Molecule	solubility kinetic
Cc1ccc2oc(NC3=NC(c4ccccc4Cl)C4=C(CCCC4=O)N3)nc2c1 (stereo not given)	< 1 µg/mL
CCCN(C(=O)c1sc2nc3n(c(=O)c2c1C)CCCC3)c1ccccc1C	1.83 µg/mL
O=C(Nc1ncnc2sc3c(c12)CCCCC3)c1ccco1	1.72 µg/mL

Query string: Consider the molecule `O=C(CCCCCCC(=O)Nc1ccccc1)NO` and give its recorded solubility kinetic.
Result string: > 39 µg/mL

Query string: Consider the molecule `Cc1c(-c2cccc3c(CCCOc4cccc5ccccc45)c(C(=O)O)n(Cc4cccnc4)c23)c(COc2ccc(N3CCN([S+](=O)([O-])N(C)C)CC3)cc2)nn1C` and give its recorded solubility kinetic.
Result string: < 1 µg/mL

Query string: Consider the molecule CC1=C(C(=O)Nc2ccc(Cl)cc2)C(c2ccccc2C)n2ncc(C(=O)Nc3ccc(C)cc3)c2N1 (stereo not given) and give its recorded solubility kinetic.
Result string: < 1 µg/mL

Query string: Consider the molecule O=C(NC1CCCc2c1[nH]c1ccc(Cl)cc21)c1ccncc1 (stereo not given) and give its recorded solubility kinetic.
Result string: < 1 µg/mL

Query string: Consider the molecule `CC(=O)N1CCN(c2nc(-c3ccc(Br)cc3)cs2)CC1` and give its recorded solubility kinetic.
Result string: < 1 µg/mL

Query string: Consider the molecule `COC(=O)Nc1nc2ccc(Sc3ccccc3)cc2[nH]1` and give its recorded solubility kinetic.
Result string: < 1 µg/mL

Query string: Consider the molecule `O=C1Nc2ccccc2/C1=C\c1ccc(O)cc1` and give its recorded solubility kinetic.
Result string: 0.999 µg/mL

---

Conditions: buffer; pH 7.4; 6.0 h; 150.0 µM
Readings of solubility kinetic for the listed molecules
// units = µg/mL; emit number, no label

Molecule	Observable	Unit of measure	Observed value
CCN1C(=O)c2ccccc2S(=O)c2ccc(NC(=O)Cc3ccc(OC)cc3)cc21 (stereo not given)	solubility kinetic	µg/mL	6.41
CC(O)(C#Cc1ccc2c(c1)N(c1nc(N)ncc1Cl)CC2)c1nccs1 (stereo not given)	solubility kinetic	µg/mL	11.9

Turning now to a further molecule:
Query string: Consider the molecule `CCOC(=O)C1CCN(C(=O)C2(NC(=O)Nc3ccc(F)cc3F)CCCCC2)CC1` and give its recorded solubility kinetic.
Result string: 41.8

---

Settings: buffer; pH 7.4; 6.0 h; 150.0 µM
Observable: solubility kinetic (µg/mL)
// units = µg/mL; emit number, no label

Example cases with answers are listed next.
Compound	Observed value
CO[C@@H]1/C=C\O[C@@]2(C)Oc3c(C)c(O)c4c(c3C2=O)C(=N[C@H]2CC[C@H](O)O[C@@H]2C)C=C(NC(=O)/C(C)=C\C(=O)[C@@H]2C[C@@H]2[C@@H](O)[C@H](C)[C@@H](O)[C@H](C)[C@H](OC(C)=O)[C@@H]1C)C4=O	32.3
O=C1NC(=S)NC(=O)C1=Cc1cccn1-c1ccc(O)cc1	37

Query string: Consider the compound `Cc1ccc(C(=O)[C@H]2CC[C@@H](C(=O)Nc3ccc(S(=O)(=O)Nc4nccs4)cc3)C2)cc1C` and give its recorded solubility kinetic.
Result string: 2.28

Query string: Consider the compound COc1ccc(C2CC(=O)Nc3nc(N)sc32)cc1OC (stereo not drawn) and give its recorded solubility kinetic.
Result string: 30.5

Query string: Consider the compound `CN1C(=O)c2ccccc2[S@](=O)c2ccc(C(=O)NCCc3cccs3)cc21` and give its recorded solubility kinetic.
Result string: 45.9

Query string: Consider the compound CCOC(=O)C1=C(C)NC(=O)CC1C(=O)Nc1cc(Cl)cc(Cl)c1 (stereo not drawn) and give its recorded solubility kinetic.
Result string: 22.4

Query string: Consider the compound `Cc1cc(C)c(C(=O)Nc2cccc([S+](=O)([O-])N3CCCC3)c2)[nH]1` and give its recorded solubility kinetic.
Result string: 11.5

Query string: Consider the compound COc1ccc(-n2nc(C3CCCN(C(=O)c4cccc(OC)c4)C3)[nH]c2=O)cc1 (stereo not drawn) and give its recorded solubility kinetic.
Result string: 22.4

Query string: Consider the compound COc1ccc(C2Nc3ccccc3C(=O)N2Cc2ccco2)cc1COc1c(C)cc(NC(C)=O)cc1C (stereo not drawn) and give its recorded solubility kinetic.
Result string: 1.53

Reference for the values: PubChem BioAssay AID1645848
